- Tested on: A549
- testMethodNotes: Antiproliferative activity against human A549 cells harboring wild type EGFR after 72 hrs by MTT assay
- Assay type: functional, cell-based
- assaySetup: A549, 72 h
measurementLabel: IC50 (µM)

See these solved cases before continuing.
1. C=CC(=O)N1CCC[C@@H](n2nc(-c3ccc(Oc4ccccc4)cc3)c3c(N)ncnc32)C1	21.8
2. C=CC(=O)N1CCC[C@@H]1Cn1cc(-c2ccc(Oc3ccccc3)cc2)c2c(N)ncnc21	15.5

1: C=CC(=O)N1CCC(Cn2cc(-c3ccc(Oc4ccccc4)cc3)c3c(N)ncnc32)C1 (single isomer, unassigned)
2: C=CS(=O)(=O)N1CC[C@H](Cn2cc(-c3ccc4c(c3)OCO4)c3c(N)ncnc32)C1
Task: Consider 1 and 2 . Which of these has its IC50 at a higher number? Which one? Tell me its label.
Output: 1
(1: 14.2 µM, 2: 1.78 µM)

* * *

- measuredTarget: UniProt:O60674
- Sequence (O60674 whole entry): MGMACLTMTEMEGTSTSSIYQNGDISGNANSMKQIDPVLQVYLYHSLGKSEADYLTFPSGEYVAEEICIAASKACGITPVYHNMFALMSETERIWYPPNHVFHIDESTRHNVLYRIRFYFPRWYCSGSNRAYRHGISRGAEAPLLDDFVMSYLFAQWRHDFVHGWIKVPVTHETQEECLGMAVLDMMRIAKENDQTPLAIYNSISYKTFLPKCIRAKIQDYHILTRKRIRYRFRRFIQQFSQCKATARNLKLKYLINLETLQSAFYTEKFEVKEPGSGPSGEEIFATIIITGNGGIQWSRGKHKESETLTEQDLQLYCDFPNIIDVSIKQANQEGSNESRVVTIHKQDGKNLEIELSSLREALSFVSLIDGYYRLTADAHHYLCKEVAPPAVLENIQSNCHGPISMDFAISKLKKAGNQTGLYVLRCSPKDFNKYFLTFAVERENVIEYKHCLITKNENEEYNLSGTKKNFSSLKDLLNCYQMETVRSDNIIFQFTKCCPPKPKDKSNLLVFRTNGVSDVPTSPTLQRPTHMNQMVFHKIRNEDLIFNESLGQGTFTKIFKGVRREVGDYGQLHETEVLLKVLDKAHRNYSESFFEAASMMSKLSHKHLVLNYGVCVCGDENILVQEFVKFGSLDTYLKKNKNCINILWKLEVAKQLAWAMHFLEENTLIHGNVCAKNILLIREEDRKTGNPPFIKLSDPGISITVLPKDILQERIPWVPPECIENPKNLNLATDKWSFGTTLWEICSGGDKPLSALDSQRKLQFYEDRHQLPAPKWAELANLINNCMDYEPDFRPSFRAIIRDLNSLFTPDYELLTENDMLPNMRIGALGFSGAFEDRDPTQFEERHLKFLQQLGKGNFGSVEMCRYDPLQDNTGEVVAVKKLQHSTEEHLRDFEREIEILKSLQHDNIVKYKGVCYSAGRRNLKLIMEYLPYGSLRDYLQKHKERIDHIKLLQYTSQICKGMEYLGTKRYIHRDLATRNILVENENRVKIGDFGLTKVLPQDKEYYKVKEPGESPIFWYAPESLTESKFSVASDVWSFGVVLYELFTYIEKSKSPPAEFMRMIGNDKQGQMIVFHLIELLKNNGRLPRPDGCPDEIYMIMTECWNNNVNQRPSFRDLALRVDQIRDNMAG
- testMethodNotes: Inhibition of recombinant human C-terminal His6-tagged JAK2 (808 to end residues) expressed in baculovirus Sf21 insect cells preincubated for 5 mins followed by substrate addition after 30 to 60 mins in presence of ATP by fluorescence assay
measurementLabel: IC50

Task: What IC50 appears in the records for this compound with UniProt:O60674? C=CS(=O)(=O)N1CCC[C@@H]1Cn1cc(-c2ccc3c(c2)OCO3)c2c(N)ncnc21
Output: > 10 µM

* * *

- measuredTarget: Tyrosine-protein kinase FRK (Homo sapiens, UniProt P42685)
- Sequence (P42685 whole entry): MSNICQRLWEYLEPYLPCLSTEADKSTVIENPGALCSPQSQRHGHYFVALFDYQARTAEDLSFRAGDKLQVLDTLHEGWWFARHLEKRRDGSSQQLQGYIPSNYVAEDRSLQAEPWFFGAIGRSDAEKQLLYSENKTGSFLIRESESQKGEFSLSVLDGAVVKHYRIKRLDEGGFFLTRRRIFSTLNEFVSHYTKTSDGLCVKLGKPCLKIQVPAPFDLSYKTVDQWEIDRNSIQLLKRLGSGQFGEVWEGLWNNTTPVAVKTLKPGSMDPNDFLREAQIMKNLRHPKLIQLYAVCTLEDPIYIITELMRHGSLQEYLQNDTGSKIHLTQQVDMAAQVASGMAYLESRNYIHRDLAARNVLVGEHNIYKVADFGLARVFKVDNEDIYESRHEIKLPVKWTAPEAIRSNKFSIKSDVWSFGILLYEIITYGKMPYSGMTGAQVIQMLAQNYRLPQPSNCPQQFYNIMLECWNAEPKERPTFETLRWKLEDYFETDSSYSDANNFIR
- testMethodNotes: Inhibition of recombinant human N-terminal His6-tagged FRK (218 to end residues) expressed in baculovirus Sf21 insect cells preincubated for 5 mins followed by substrate addition after 30 to 60 mins in presence of ATP by fluorescence assay
measurementLabel: pIC50
Scale: negative log10 of molar concentration, which is what pIC50 denotes.

Task: What pIC50 appears in the records for this molecule with Tyrosine-protein kinase FRK (Homo sapiens, UniProt P42685)? C=CS(=O)(=O)N1CCC[C@@H]1Cn1cc(-c2ccc3c(c2)OCO3)c2c(N)ncnc21
Output: 6.29
